pIC50: −log10 of the molar value. Where a SMILES comes first, the peptide text is derived from it. [ ]: non-standard residue; d: D form. dPhg = N[C@@H](C(=O)O)c1ccccc1
As a worked illustration, we turn to pIC50 data collected for Prothrombin (Bos taurus) (UniProt P00735).
value-type: pIC50

1. N=C(N)NCCC[C@@H](C=O)NC(=O)[C@@H]1CCCN1C(=O)C1CCc2ccccc2N1 (stereo partly drawn) : 5.51
2. CC(C)(C)OC(=O)N[C@@H](C(=O)N1CCC[C@H]1C(=O)N[C@H](C=O)CCCN=C(N)N)c1ccc(F)cc1 : 7.52
3. C[C@H](C(=O)N1CCC[C@H]1C(=O)NC(C=O)CCCNC(=N)N)c1ccccc1 (stereo partly drawn) : 7.03
4. N=C(N)NCCC[C@@H](C=O)NC(=O)[C@@H]1CCCN1C(=O)[C@H]1Cc2ccccc2CN1 : 7.60
5. CC(C)(C)OC(=O)N[C@@H](C(=O)N1CCC[C@H]1C(=O)N[C@H](C=O)CCCN=C(N)N)c1ccsc1 : 7.14
6. N=C(N)NCCC[C@@H](C=O)NC(=O)[C@@H]1CCCN1C(=O)[C@@H]1NCCc2ccccc21 : 7.72
7. NC(N)=NCCC[C@@H](C=O)NC(=O)[C@@H]1CCCN1C(=O)[C@H](N)c1ccccc1 (H-[dPhg]-Pro-Arg-aldehyde) : 7.74
8. CN[C@@H](C(=O)N1CCC[C@H]1C(=O)N[C@H](C=O)CCCNC(=N)N)c1ccccc1 : 7.74

###

# protocol-summary: Selectivity was expressed as the ratio is IC 50 of plasmin / thrombin
Where a SMILES comes first, the peptide text is derived from it. [ ]: non-standard residue; d: D form. dPhg = N[C@@H](C(=O)O)c1ccccc1
value-type: Selectivity ratio

1) CC(C)(C)OC(=O)N[C@H](C(=O)N1CCC[C@H]1C(=O)NC(C=O)CCCN=C(N)N)c1cccc2ccccc12 (some centres undefined) : 3
2) NC(N)=NCCC[C@@H](C=O)NC(=O)[C@@H]1CCCN1C(=O)[C@H](N)c1ccccc1 (H-[dPhg]-Pro-Arg-aldehyde) : 50
3) CC(C)(C)OC(=O)N[C@H](C(=O)N1CCC[C@H]1C(=O)N[C@H](C=O)CCCN=C(N)N)c1ccc(F)cc1 : 9
4) CC(C)(C)OC(=O)N[C@@H](C(=O)N1CCC[C@H]1C(=O)NC(C=O)CCCN=C(N)N)c1cccc2ccccc12 (some centres undefined) : 30

###

# protocol-summary: Selectivity was expressed as the ratio is IC 50 of t-PA / thrombin
Below, each entry is listed alongside its reported Selectivity ratio.
value-type: Selectivity ratio

1. CN[C@@H](C(=O)N1CCC[C@H]1C(=O)N[C@H](C=O)CCCN=C(N)N)c1ccccc1 : 2300
2. CC(C)(C)OC(=O)NC(C(=O)N1CCC[C@H]1C(=O)NC(C=O)CCCN=C(N)N)c1cccc(C(F)(F)F)c1 (stereo partly drawn) : 560
3. CC(C)(C)OC(=O)N[C@@H](C(=O)N1CCC[C@H]1C(=O)NC(C=O)CCCN=C(N)N)c1cccc2ccccc12 (stereo partly drawn) : 870
4. CC(C)(C)OC(=O)N[C@@H](C(=O)N1CCC[C@H]1C(=O)NC(C=O)CCCN=C(N)N)c1ccc2ccccc2c1 (stereo partly drawn) : 670
5. CC(C)(C)OC(=O)N[C@@H](C(=O)N1CCC[C@H]1C(=O)N[C@H](C=O)CCCN=C(N)N)c1ccsc1 : 180
6. CC(C)(C)OC(=O)N[C@@H](C(=O)N1CCC[C@H]1C(=O)N[C@H](C=O)CCCN=C(N)N)c1ccc(F)cc1 : 600
